- Tested on: E. coli ATCC 25922
- PROTOCOL_DETAILS: MIC, NCCLS broth microdilution
- Assay type: cell-based, Escherichia coli
- PARTICULARS: G = E. coli ATCC 25922
ENDPOINT_NAME: Minimum Inhibitory Concentration (MIC)

1) Cn1cc(NC(=O)c2cc3ccccc3cn2)cc1C(=O)Nc1ccc(C(=O)Nc2cn(C)c(C(=O)NCCNCCCCCO)n2)cc1 | +++ (MIC ≦ 4 μg/mL)
2) Cn1cc(NC(=O)c2cc3ccccc3cn2)cc1C(=O)Nc1ccc(C(=O)Nc2cn(C)c(C(=O)NCCNCCCO)n2)cc1 | >32 µg/mL
3) COCCNCCNC(=O)c1nc(NC(=O)c2ccc(NC(=O)c3cc(NC(=O)c4cc5ccccc5cn4)cn3C)cc2)cn1C | ++ (4 < MIC < 12 μg/mL)
4) COCCN(CCNC(=O)c1nc(NC(=O)c2ccc(NC(=O)c3cc(NC(=O)c4cc5ccccc5cn4)cn3C)cc2)cn1C)CCOC | >32 µg/mL
5) Cn1cc(NC(=O)c2cc3ccccc3cn2)cc1C(=O)Nc1ccc(C(=O)Nc2cn(C)c(C(=O)NCCN3CCC(OC(=O)CCN)CC3)n2)cc1 | >32 µg/mL
6) CCN(CC)CCNC(=O)c1nc(NC(=O)c2ccc(NC(=O)c3cc(NC(=O)c4cc5ccccc5cn4)cn3C)cc2)cn1C | >32 µg/mL
7) Cn1cc(NC(=O)c2cc3ccccc3cn2)cc1C(=O)Nc1ccc(C(=O)Nc2cn(C)c(C(=O)NCCN3CCNCC3)n2)cc1 | >32 µg/mL
8) CC(C)N1CCN(CCC(=O)OC2CCN(CCNC(=O)c3nc(NC(=O)c4ccc(NC(=O)c5cc(NC(=O)c6cc7ccccc7cn6)cn5C)cc4)cn3C)CC2)CC1 | >32 µg/mL
9) Cn1cc(NC(=O)c2cc3ccccc3cn2)cc1C(=O)Nc1ccc(C(=O)Nc2cn(C)c(C(=O)NCCN3CCSCC3)n2)cc1 | >32 µg/mL
10) Cn1cc(NC(=O)c2cc3ccccc3cn2)cc1C(=O)Nc1ccc(C(=O)Nc2cn(C)c(C(=O)NCCN3CCOCC3)n2)cc1 | >32 µg/mL
11) Cn1cc(NC(=O)c2cc3ccccc3cn2)cc1C(=O)Nc1ccc(C(=O)Nc2cn(C)c(C(=O)NCCN3CCN(C(=O)CN)CC3)n2)cc1 | >32 µg/mL
12) Cn1cc(NC(=O)c2cc3ccccc3cn2)cc1C(=O)Nc1ccc(C(=O)Nc2cn(C)c(C(=O)NCCN3CCCC(O)C3)n2)cc1 (stereo not drawn) [Compound A-72] | >32 µg/mL
13) Cn1cc(NC(=O)c2cc3ccccc3cn2)cc1C(=O)Nc1ccc(C(=O)Nc2cn(C)c(C(=O)NCCN3CCCCC3)n2)cc1 | +++ (MIC ≦ 4 μg/mL)
14) Cn1cc(NC(=O)c2cc3ccccc3cn2)cc1C(=O)Nc1ccc(C(=O)Nc2cn(C)c(C(=O)NCCNc3ccccn3)n2)cc1 | >32 µg/mL
15) Cn1cc(NC(=O)c2cc3ccccc3cn2)cc1C(=O)Nc1ccc(C(=O)Nc2cn(C)c(C(=O)NCCNCC3CC3)n2)cc1 | +++ (MIC ≦ 4 μg/mL)
16) COCCN(C)CCNC(=O)c1nc(NC(=O)c2ccc(NC(=O)c3cc(NC(=O)c4cc5ccccc5cn4)cn3C)cc2)cn1C | ++ (4 < MIC < 12 μg/mL)
17) Cn1cc(NC(=O)c2cc3ccccc3cn2)cc1C(=O)Nc1ccc(C(=O)Nc2cn(C)c(C(=O)NCCN3CCN(CCOC(=O)CNC(=O)OC(C)(C)C)CC3)n2)cc1 | >32 µg/mL
18) Cn1cc(NC(=O)c2cc3ccccc3cn2)cc1C(=O)Nc1ccc(C(=O)Nc2cn(C)c(C(=O)NCCN3CCN(S(C)(=O)=O)CC3)n2)cc1 | >32 µg/mL
19) Cn1cc(NC(=O)c2cc3cc4c(cc3cn2)OCO4)cc1C(=O)Nc1ccc(C(=O)Nc2cn(C)c(C(=O)NCCN3CCC(O)CC3)n2)cc1 | + (12 ≦ MIC ≦ 32 μg/mL)
20) Cn1cc(NC(=O)c2cc3ccccc3cn2)cc1C(=O)Nc1ccc(C(=O)Nc2cn(C)c(C(=O)NCCN3CCCC3)n2)cc1 | +++ (MIC ≦ 4 μg/mL)
21) Cn1cc(NC(=O)c2cc3ccccc3cn2)cc1C(=O)Nc1ccc(C(=O)Nc2cn(C)c(C(=O)NCCN3CCCC(O)C3)n2)cc1 (racemic) [Compound A-69] | >32 µg/mL
22) Cn1cc(NC(=O)c2cc3ccccc3cn2)cc1C(=O)Nc1ccc(C(=O)Nc2cn(C)c(C(=O)NCCN3CCC(O)C3)n2)cc1 (stereo not drawn) [Compound A-70] | +++ (MIC ≦ 4 μg/mL)
23) CCC(O)CN1CCN(CCNC(=O)c2nc(NC(=O)c3ccc(NC(=O)c4cc(NC(=O)c5cc6ccccc6cn5)cn4C)cc3)cn2C)CC1 (stereo not drawn) | + (12 ≦ MIC ≦ 32 μg/mL)
24) Cn1cc(NC(=O)c2cc3ccccc3cn2)cc1C(=O)Nc1ccc(C(=O)Nc2cn(C)c(C(=O)NCCNC(CO)CO)n2)cc1 | >32 µg/mL
